Origin of measurements: patent US7351690B2

Item-by-item account of % Inhibition at 1 μM at Melanocortin Receptor 5
# ASSAY SYSTEM: hMC5-R (Homo sapiens, UniProt P33032)
# Construct: expressed in transfected cells
# Sequence (P33032 whole entry): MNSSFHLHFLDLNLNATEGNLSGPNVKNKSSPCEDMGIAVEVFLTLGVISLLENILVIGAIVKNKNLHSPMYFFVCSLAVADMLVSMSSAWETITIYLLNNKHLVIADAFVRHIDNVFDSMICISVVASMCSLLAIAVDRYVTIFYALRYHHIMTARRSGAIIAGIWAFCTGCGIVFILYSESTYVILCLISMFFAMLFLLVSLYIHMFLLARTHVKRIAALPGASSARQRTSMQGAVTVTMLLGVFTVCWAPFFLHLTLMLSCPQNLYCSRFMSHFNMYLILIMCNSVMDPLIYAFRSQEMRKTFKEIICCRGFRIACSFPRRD
# ASSAY NOTES: competitive inhibition binding assay, 125I-NDP-alpha-MSH, hMC5-R membranes
# DETAILS: 1 μM test peptide; 0.4 nM 125I-NDP-alpha-MSH; hMC5-R membranes
Square brackets hold non-standard residues; d marks the D form. Ends that are not written are not given here. Nle = CCCC[C@H](N)C(=O)O
Respond with the bare value in %.

Some substances with known % Inhibition at 1 μM at Melanocortin Receptor 5 results, for comparison:
- Ac-Ser-Tyr-Ser-Nle-Glu-D-Cys-His-Phe-Arg-Trp-Gly-Lys-Pro-Val-NH2 (Ac-SYS[Nle]E[dC]HFRWGKPV-NH2; numbers in words are those of the source; also: oxorhenium(V) N3S1 chelate via Cys (Re(V)=O)) [2-9]: 2
- Ac-Ser-Tyr-Ser-Nle-Glu-His-Phe-Arg-Trp-Gly-Lys-Gly-Val-Cys-NH2 (Ac-SYS[Nle]EHFRWGKGVC-NH2; not fully specified (bridges); printed as Ac-Ser-Tyr-Ser-Nle-Glu-His-Phe-Arg-Trp-Gly-Lys-Gly-Val-Cys-NH2; numbers in words are those of the source; also: oxorhenium(V) N3S1 chelate (Re(V)=O)) [1-1]: 68
- Tyr-Val-Cys-Nle-Gly-His-Phe-Arg-Trp-Asp-Arg-Phe-NH2 (YVC[Nle]GHFRWDRF-NH2; not fully specified (bridges); printed as Tyr-Val-Cys-Nle-Gly-His-Phe-Arg-Trp-Asp-Arg-Phe-NH2; numbers in words are those of the source; also: oxorhenium(V) N3S1 chelate (Re=O) with Cys) [4-10]: 17
- Ac-Ser-Tyr-D-Cys-Ser-Nle-Glu-His-Phe-Arg-Trp-Gly-Lys-Pro-Val-NH2 (Ac-SY[dC]S[Nle]EHFRWGKPV-NH2; not fully specified (bridges); printed as Ac-Ser-Tyr-D-Cys-Ser-Nle-Glu-His-Phe-Arg-Trp-Gly-Lys-Pro-Val-NH2; numbers in words are those of the source; also: oxorhenium(V) N3S1 chelate (Re(V)=O)) [2-12]: 17
- Tyr-Val-Nle-Cys-Gly-His-D-Phe-Arg-Trp-Asp-Arg-Phe-NH2 (YV[Nle]CGH[dF]RWDRF-NH2; not fully specified (bridges); printed as Tyr-Val-Nle-Cys-Gly-His-D-Phe-Arg-Trp-Asp-Arg-Phe-NH2; numbers in words are those of the source; also: oxorhenium(V) N3S1 chelate complex (Re=O)) [3-10]: 86

Next:
QUERY: Give its % Inhibition at 1 μM at Melanocortin Receptor 5 value. Item: Tyr-Val-Nle-Gly-His-Cys-D-Phe-Arg-Trp-Asp-Arg-Phe-NH2 [3-7] (YV[Nle]GHC[dF]RWDRF-NH2; numbers in words are those of the source; also: oxorhenium(V) N3S1 chelate complex (Re=O))
RESULT: 56

----------
# ASSAY SYSTEM: hMC3-R (Homo sapiens, UniProt P41968)
# Construct: expressed in transfected cells
# Sequence (P41968 whole entry): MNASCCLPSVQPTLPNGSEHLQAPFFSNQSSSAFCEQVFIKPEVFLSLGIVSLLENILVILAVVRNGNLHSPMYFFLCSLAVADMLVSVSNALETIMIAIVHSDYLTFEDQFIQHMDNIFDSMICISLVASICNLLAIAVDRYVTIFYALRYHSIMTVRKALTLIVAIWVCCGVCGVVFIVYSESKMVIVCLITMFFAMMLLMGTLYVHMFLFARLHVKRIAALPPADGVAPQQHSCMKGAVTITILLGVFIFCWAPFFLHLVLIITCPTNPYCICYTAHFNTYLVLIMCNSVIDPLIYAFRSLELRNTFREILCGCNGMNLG
# ASSAY NOTES: competitive inhibition binding assay, 125I-NDP-alpha-MSH, hMC3-R membranes
# DETAILS: 1 μM test peptide; 0.4 nM 125I-NDP-alpha-MSH; hMC3-R membranes
Square brackets hold non-standard residues; d marks the D form. Ends that are not written are not given here. Nle = CCCC[C@H](N)C(=O)O
Tag: YES if measured % Inhibition at 1 μM at Melanocortin Receptor 3 is not below 20%, NO if it is.

Solved cases (3 shown):
* Ac-Ser-Tyr-Ser-Nle-Glu-His-Phe-Arg-Trp-Cys-Gly-Lys-Pro-Val-NH2 (Ac-SYS[Nle]EHFRWCGKPV-NH2; not fully specified (bridges); printed as Ac-Ser-Tyr-Ser-Nle-Glu-His-Phe-Arg-Trp-Cys-Gly-Lys-Pro-Val-NH2; numbers in words are those of the source; also: oxorhenium(V) N3S1 chelate (Re(V)=O)) [1-5] | NO
* Ac-Ser-Tyr-Cys-Ser-Nle-Glu-His-Phe-Arg-Trp-Gly-Lys-Pro-Val-NH2 (chain 1 Ac-SYCS[Nle]; chain 2 EHFRWGKPV-NH2; not fully specified (bridges); printed as Ac-Ser-Tyr-Cys-Ser-Nle-Glu-His-Phe-Arg-Trp-Gly-Lys-Pro-Val-NH2; also: oxorhenium(V) N3S1 chelate (Re(V)=O)) [1-12] | NO
* Ac-Ser-Tyr-Ser-Nle-Glu-His-Phe-Arg-Trp-Gly-Lys-Gly-D-Cys-Val-NH2 (Ac-SYS[Nle]EHFRWGKG[dC]V-NH2; not fully specified (bridges); printed as Ac-Ser-Tyr-Ser-Nle-Glu-His-Phe-Arg-Trp-Gly-Lys-Gly-D-Cys-Val-NH2; numbers in words are those of the source; also: oxorhenium(V) N3S1 chelate (Re(V)=O)) [2-2] | YES

QUERY: In plain terms: is recorded % Inhibition at 1 μM at Melanocortin Receptor 3 at least 20% for Ac-Ser-Tyr-Ser-Nle-Glu-His-Phe-Arg-Trp-Gly-Lys-Cys-Pro-Val-NH2 (Ac-SYS[Nle]EHFRWGKCPV-NH2; not fully specified (bridges); printed as Ac-Ser-Tyr-Ser-Nle-Glu-His-Phe-Arg-Trp-Gly-Lys-Cys-Pro-Val-NH2; numbers in words are those of the source; also: oxorhenium(V) N3S1 chelate (Re(V)=O)) [1-3] ?
RESULT: NO

QUERY: In plain terms: is recorded % Inhibition at 1 μM at Melanocortin Receptor 3 at least 20% for Tyr-Val-Nle-Gly-His-D-Phe-Arg-Trp-Asp-Arg-Cys-Phe-NH2 (YV[Nle]GH[dF]RWDRCF-NH2; also: Re complex) [3-2] ?
RESULT: YES

QUERY: In plain terms: is recorded % Inhibition at 1 μM at Melanocortin Receptor 3 at least 20% for Ac-Ser-Tyr-Ser-Nle-Glu-D-Cys-His-Phe-Arg-Trp-Gly-Lys-Pro-Val-NH2 (Ac-SYS[Nle]E[dC]HFRWGKPV-NH2; numbers in words are those of the source; also: oxorhenium(V) N3S1 chelate via Cys (Re(V)=O)) [2-9] ?
RESULT: NO

----------
# ASSAY SYSTEM: hMC5-R (Homo sapiens, UniProt P33032)
# Construct: expressed in transfected cells
# ASSAY NOTES: competitive inhibition binding assay, 125I-NDP-alpha-MSH, hMC5-R membranes
# DETAILS: 1 μM test peptide; 0.4 nM 125I-NDP-alpha-MSH; hMC5-R membranes
Square brackets hold non-standard residues; d marks the D form. Ends that are not written are not given here. Nle = CCCC[C@H](N)C(=O)O
ENDPOINT: % Inhibition at 1 μM at Melanocortin Receptor 5 (%)
Respond with the bare value in %.

QUERY: Give its % Inhibition at 1 μM at Melanocortin Receptor 5 value. Item: Tyr-Val-Nle-Gly-His-Phe-Arg-Trp-Asp-Arg-Cys-Phe-NH2 (YV[Nle]GHFRWDRCF-NH2; numbers in words are those of the source; also: oxorhenium(V) N3S1 chelate (Re=O) with Cys) [4-2]
RESULT: 51

QUERY: Give its % Inhibition at 1 μM at Melanocortin Receptor 5 value. Item: Tyr-Val-Nle-Gly-Cys-His-D-Phe-Arg-Trp-Asp-Arg-Phe-NH2 (YV[Nle]GCH[dF]RWDRF-NH2; not fully specified (bridges); printed as Tyr-Val-Nle-Gly-Cys-His-D-Phe-Arg-Trp-Asp-Arg-Phe-NH2; numbers in words are those of the source; also: oxorhenium(V) N3S1 chelate complex (Re=O)) [3-9]
RESULT: 67

QUERY: Give its % Inhibition at 1 μM at Melanocortin Receptor 5 value. Item: Ac-Ser-Tyr-Ser-Nle-Glu-His-Phe-Arg-Trp-Cys-Gly-Lys-Pro-Val-NH2 (Ac-SYS[Nle]EHFRWCGKPV-NH2; not fully specified (bridges); printed as Ac-Ser-Tyr-Ser-Nle-Glu-His-Phe-Arg-Trp-Cys-Gly-Lys-Pro-Val-NH2; numbers in words are those of the source; also: oxorhenium(V) N3S1 chelate (Re(V)=O)) [1-5]
RESULT: 0

----------
# ASSAY SYSTEM: hMC3-R (Homo sapiens, UniProt P41968)
# Construct: expressed in transfected cells
# ASSAY NOTES: competitive inhibition binding assay, 125I-NDP-alpha-MSH, hMC3-R membranes
# DETAILS: 1 μM test peptide; 0.4 nM 125I-NDP-alpha-MSH; hMC3-R membranes
# Method: The competitive inhibition binding assay was conducted using membranes prepared from hMC3-R, hMC4-R, hMC5-R, and B-16 mouse melanoma cells (containing MC1-R) using 0.4 nM ^125I-NDP-alpha-MSH (New England Nuclear, Boston, Mass., USA) in 50 mM HEPES buffer containing 1 mM MgCl2, 2 mM CaCl2, and 5 mM KCl, at pH 7.2. […] The filter was dried and counted in a gamma counter for remaining radioactivity bound to the membranes. […]
Square brackets hold non-standard residues; d marks the D form. Ends that are not written are not given here. Nle = CCCC[C@H](N)C(=O)O
ENDPOINT: % Inhibition at 1 μM at Melanocortin Receptor 3 (%)
Respond with the bare value in %.

Some substances with known % Inhibition at 1 μM at Melanocortin Receptor 3 results, for comparison:
- Ac-Ser-Tyr-Ser-Nle-Cys-Glu-His-Phe-Arg-Trp-Gly-Lys-Pro-Val-NH2 (Ac-SYS[Nle]CEHFRWGKPV-NH2; not fully specified (bridges); printed as Ac-Ser-Tyr-Ser-Nle-Cys-Glu-His-Phe-Arg-Trp-Gly-Lys-Pro-Val-NH2; numbers in words are those of the source; also: oxorhenium(V) N3S1 chelate (Re(V)=O)) [1-10]: 0
- Tyr-Val-Nle-Gly-His-Phe-Cys-Arg-Trp-Asp-Arg-Phe-NH2 (YV[Nle]GHFCRWDRF-NH2; numbers in words are those of the source; also: oxorhenium(V) N3S1 chelate (Re=O) with Cys) [4-6]: 5

Next:
QUERY: Give its % Inhibition at 1 μM at Melanocortin Receptor 3 value. Item: Ac-Ser-Tyr-Ser-Nle-Glu-His-Phe-Cys-Arg-Trp-Gly-Lys-Pro-Val-NH2 (Ac-SYS[Nle]EHFCRWGKPV-NH2; not fully specified (bridges); printed as Ac-Ser-Tyr-Ser-Nle-Glu-His-Phe-Cys-Arg-Trp-Gly-Lys-Pro-Val-NH2; numbers in words are those of the source; also: oxorhenium(V) N3S1 chelate (Re(V)=O)) [1-7]
RESULT: 0
